tested on: NOMO1; assay: cell viability relative to DMSO control; higher = less cytotoxic; conditions: HPLM + 10% dialyzed FBS; 48 h; 0.19 µM
Item-by-item account of cell viability
Please state the figure in %; there is no need to write the unit.

CC(=O)OCC(=O)[C@@]12OC(C)(C)O[C@@H]1C[C@H]3[C@@H]4C[C@H](F)C/5=C/C(=O)/C=C\[C@]5(C)[C@@]4(F)[C@@H](O)C[C@]23C = 115
CO[C@H]1/C=C/O[C@@]2(C)Oc3c(C)c(O)c4c(O)c(c(/C=N\N5CCN(C6CCCC6)CC5)c(O)c4c3C2=O)NC(=O)/C(C)=C\C=C\[C@H](C)[C@H](O)[C@@H](C)[C@@H](O)[C@@H](C)[C@H](OC(C)=O)[C@@H]1C = 93.4
C[N+](C)(C)CC(=O)O.[Cl-] = 86.3
Cn1c(=O)c2[nH]cnc2n(C)c1=O = 115

Data request: Given the entry CC1(C)Cc2c(sc(NC(=S)NC(=O)c3ccccc3)c2C(=O)O)CO1 , report its measured cell viability.
Data returned: 114

Data request: Please give the measured cell viability for this compound: C[C@H]1[C@H](O)O[C@@H]2O[C@@]3(C)CC[C@H]4[C@H](C)CC[C@@H]1[C@@]24OO3
Data returned: 96

These data points were gathered from the supplement of paper PMC11451515.
